Measured values drawn from patent US10781211B2 for this set.

Target: FAAH (Mus musculus (Mouse), UniProt O08914)
Sequence (O08914 whole entry): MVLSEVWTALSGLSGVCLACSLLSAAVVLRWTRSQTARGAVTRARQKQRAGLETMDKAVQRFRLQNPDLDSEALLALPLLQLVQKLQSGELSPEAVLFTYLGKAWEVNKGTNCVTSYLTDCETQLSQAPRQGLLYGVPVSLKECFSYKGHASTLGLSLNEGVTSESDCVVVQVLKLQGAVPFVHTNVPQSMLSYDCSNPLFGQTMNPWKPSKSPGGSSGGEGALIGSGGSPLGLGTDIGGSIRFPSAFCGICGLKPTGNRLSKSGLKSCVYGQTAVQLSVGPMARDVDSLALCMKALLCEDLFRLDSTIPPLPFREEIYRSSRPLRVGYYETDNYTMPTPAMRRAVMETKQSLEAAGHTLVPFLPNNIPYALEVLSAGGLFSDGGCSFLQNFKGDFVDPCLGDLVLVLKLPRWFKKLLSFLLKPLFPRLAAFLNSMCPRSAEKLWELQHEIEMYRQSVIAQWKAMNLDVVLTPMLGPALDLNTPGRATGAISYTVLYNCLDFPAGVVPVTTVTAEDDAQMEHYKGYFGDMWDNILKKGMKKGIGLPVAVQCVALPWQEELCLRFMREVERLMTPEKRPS
Assay: Mouse brain proteomes from inhibitor treated mice (oral gavage, sacrifice 4 h after administration, ABPP analysis), FAAH
Assay type: in vivo
Details: 5 mg/kg oral gavage
ENDPOINT_NAME: FAAH % Inh 5 mg/kg (mouse)

{"columns": ["COMPOUND", "RESULT"],
 "data": [
  ["CC1(C(=O)O)CCCN(c2cc(C(F)(F)F)ccc2CN2CCC3(CCN(C(=O)OC(C(F)(F)F)C(F)(F)F)CC3)C2)C1 (centres unmarked) [Example 216]", "# (# is < 25%)"],
  ["O=C(OC(C(F)(F)F)C(F)(F)F)N1CCC2(CCCN2Cc2ccc(Cl)c(N3CCCC3)c2)CC1 [Example 132]", "# (# is < 25%)"],
  ["O=C(OC(C(F)(F)F)C(F)(F)F)N1CCC2(CCCN2Cc2ccc(Cl)cc2N2CCCCC2)CC1 [Example 74]", "# (# is < 25%)"],
  ["O=C(O)C1CCN(C(=O)c2cc(C(F)(F)F)ccc2CN2CCCC23CCN(C(=O)OC(C(F)(F)F)C(F)(F)F)CC3)CC1 [Example 281]", "# (# is < 25%)"],
  ["O=C(OC(C(F)(F)F)C(F)(F)F)N1CCC2(CCCN2Cc2ccc(Cl)cc2N2CCC(F)CC2)CC1 [Example 102]", "# (# is < 25%)"],
  ["O=C(OC(C(F)(F)F)C(F)(F)F)N1CCC2(CCCN2Cc2ccc(Cl)c(C(F)(F)F)c2)CC1 [Example 184]", "# (# is < 25%)"],
  ["O=C(OC(C(F)(F)F)C(F)(F)F)N1CCC2(CCCN2Cc2ccc(N3CCCC3)c(Cl)c2)CC1 [Example 128]", "# (# is < 25%)"],
  ["CN1CCCc2ccc(CN3CCCC34CCN(C(=O)OC(C(F)(F)F)C(F)(F)F)CC4)cc21 [Example 68]", "# (# is < 25%)"],
  ["CC1(C(=O)O)CCN(c2cc(C(F)(F)F)ccc2CN2CCCC23CCN(C(=O)OC(C(F)(F)F)C(F)(F)F)CC3)C1 (centres unmarked) [Example 230]", "# (# is < 25%)"],
  ["O=C(OC(C(F)(F)F)C(F)(F)F)N1CCC2(CCN(Cc3ccc(Cl)cc3N3CCOCC3)C2)CC1 [Example 21]", "# (# is < 25%)"]
]}

FAAH % Inh 5 mg/kg (mouse) reading for O=C(OC(C(F)(F)F)C(F)(F)F)N1CCC2(CCN(Cc3ccc(C(F)(F)F)cc3N3CCCC3)C2)CC1 [Example 72] : # (# is < 25%)

Noted for O=C(OC(C(F)(F)F)C(F)(F)F)N1CCC2(CCCN2Cc2ccc(C(F)(F)F)cc2N2CCC(F)CC2)CC1 [Example 91] : its FAAH % Inh 5 mg/kg (mouse) reads # (# is < 25%)

// FAAH % Inh 5 mg/kg (mouse) lookup, compound = CC1(C)CC2(CCN(C(=O)OC(C(F)(F)F)C(F)(F)F)CC2)CN1Cc1cccc(Cl)c1N1CCOCC1 [Example 54] , result: # (# is < 25%)

The compound identified as CC1(C)CC2(CCN(C(=O)OC(C(F)(F)F)C(F)(F)F)CC2)CN1Cc1ccc(Cl)cc1 [Example 48] registered its FAAH % Inh 5 mg/kg (mouse) at # (# is < 25%)

The recorded FAAH % Inh 5 mg/kg (mouse) for O=C(OC(C(F)(F)F)C(F)(F)F)N1CCC2(CCCN2Cc2ccc(C(F)(F)F)c(N3CCOCC3)c2)CC1 [Example 133] is # (# is < 25%)

In plain terms, O=C(OC(C(F)(F)F)C(F)(F)F)N1CCC2(CCN(Cc3cccc(Cl)c3N3CCC(F)CC3)C2)CC1 [Example 65] has a documented FAAH % Inh 5 mg/kg (mouse) of # (# is < 25%)

// FAAH % Inh 5 mg/kg (mouse) lookup, compound = O=C(OC(C(F)(F)F)C(F)(F)F)N1CCC2(CCCN2Cc2ccc(Cl)cc2N2CCCC2)CC1 [Example 76] , result: # (# is < 25%)

For record O=C(OC(C(F)(F)F)C(F)(F)F)N1CCC2(CCN(Cc3ccc(C(F)(F)F)cc3N3CCOCC3)C2)CC1 [Example 22] the listed FAAH % Inh 5 mg/kg (mouse) is # (# is < 25%)

Lab book: FAAH % Inh 5 mg/kg (mouse) of O=C(OC(C(F)(F)F)C(F)(F)F)N1CCC2(CCCN2Cc2ccc(Cl)cc2OCCF)CC1 [Example 30] noted as # (# is < 25%)

O=C(O)[C@@H]1CCCCN1c1cc(CN2CCCC23CCN(C(=O)OC(C(F)(F)F)C(F)(F)F)CC3)cc(C(F)(F)F)c1 [Example 196] yielded FAAH % Inh 5 mg/kg (mouse) of # (# is < 25%)

Quick note, FAAH % Inh 5 mg/kg (mouse) for CC1(C)CC2(CCN(C(=O)OC(C(F)(F)F)C(F)(F)F)CC2)CN1Cc1ccc(Cl)cc1N1CCOCC1 [Example 50] landed at # (# is < 25%)

Field FAAH % Inh 5 mg/kg (mouse) (entry O=C(O)C1CN(c2cc(C(F)(F)F)ccc2CN2CCCC23CCN(C(=O)OC(C(F)(F)F)C(F)(F)F)CC3)CCO1 (centres unmarked) [Example 197] ) reads # (# is < 25%)

For this compound ( O=C(O)C1CCN(c2cc(F)cc(CN3CCCC34CCN(C(=O)OC(C(F)(F)F)C(F)(F)F)CC4)c2)CC1 [Example 236] ), measured FAAH % Inh 5 mg/kg (mouse) is # (# is < 25%)
